Test system: DNA Pol I (Klenow fragment, exo-)
measurement-description: steady-state kinetics of single nucleotide insertions, thymidine analogues in the template
Assay type: biochemical, E. coli
condition-details: insertion of dATP opposite template base; 37° C.
readout-label: Km (µM)
Please respond with the number in µM and leave the unit unwritten.

Km in this record for Cc1ccc(Br)cc1Br [B, 2,4-dibromotoluene] : 21

Lab note: measured Km of Cc1ccc(Cl)cc1Cl [L, 2,4-dichlorotoluene] was 3.3

Just so you know, measured Km for Cc1c[nH]c(=O)[nH]c1=O [T, thymine, reference compound] came out at 1.9

Entry under test: Cc1ccc(I)cc1I [I, 2,4-diiodotoluene] . Its Km was 26
